Where these numbers come from: ChEMBL document CHEMBL5584266

- Measured Target: Cathepsin K (Homo sapiens)
- Sequence (P43235 whole entry): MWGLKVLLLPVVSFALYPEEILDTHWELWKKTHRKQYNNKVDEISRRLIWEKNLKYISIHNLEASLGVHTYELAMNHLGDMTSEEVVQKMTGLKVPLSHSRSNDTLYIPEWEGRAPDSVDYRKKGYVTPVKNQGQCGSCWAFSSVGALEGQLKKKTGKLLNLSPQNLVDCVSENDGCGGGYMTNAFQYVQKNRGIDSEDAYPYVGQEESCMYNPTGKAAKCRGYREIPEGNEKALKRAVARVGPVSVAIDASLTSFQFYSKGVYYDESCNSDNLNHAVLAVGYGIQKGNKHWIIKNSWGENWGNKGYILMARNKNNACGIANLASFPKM
- Procedure Details: Binding affinity to human Cathepsin K assessed as inhibition constant
- Study Conditions: read-out: Ki
Property Label: Ki

Sure, the documented Ki for CC(C)C[C@H](NC(=O)c1cc(C(C)(C)C)nn1C)C(=O)NC1(C#N)CC1 is ~8 nM

====

- Measured Target: Procathepsin L (Homo sapiens, UniProt P07711)
- Sequence (P07711 whole entry): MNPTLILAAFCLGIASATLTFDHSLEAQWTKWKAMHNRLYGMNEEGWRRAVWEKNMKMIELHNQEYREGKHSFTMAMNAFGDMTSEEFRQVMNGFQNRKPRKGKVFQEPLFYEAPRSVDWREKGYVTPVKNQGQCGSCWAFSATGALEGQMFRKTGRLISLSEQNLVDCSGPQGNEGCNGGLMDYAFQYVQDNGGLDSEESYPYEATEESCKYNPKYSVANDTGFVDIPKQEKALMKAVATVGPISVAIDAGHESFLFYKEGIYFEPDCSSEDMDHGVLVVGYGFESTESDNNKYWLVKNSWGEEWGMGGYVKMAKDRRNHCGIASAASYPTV
- Procedure Details: Binding affinity to human Cathepsin L assessed as inhibition constant
- Study Conditions: read-out: Ki
Property Label: Ki

Sure, the documented Ki for CC(C)C[C@H](NC(=O)c1cc(C(C)(C)C)nn1C)C(=O)NC1(C#N)CC1 is ~8 nM
